Overview of reported TGI across a group of molecules:
tested on: COLO 205 colon; assay: NCI tumour cell line growth inhibition, 48 h

Reference set, count: 4
CCN1CCN(c2nc(NCCCNc3ccnc4cc(Cl)ccc34)c3ccccc3n2)CC1; 3.46 µM
O=C1CC(O)c2c1csc2Br (configuration not stated); 59.9 µM
N#CCCN(c1ccc(C=Nc2cccc([N+](=O)[O-])c2)cc1)S(=O)(=O)c1ccccc1; > 100 µM
CC(C)CC(N)C(=O)OCN1C(=O)C2C3C=CC(C2C1=O)C1C2C(=O)N(COC(=O)C(N)CC(C)C)C(=O)C2C31 (configuration not stated); > 100 µM

Q. Bench note: what TGI did CC1(C)CC2(C)CC1CC2O (configuration not stated) show?
A. > 100 µM

Q. Bench note: what TGI did C#Cc1cnc(=O)n(C2CC(O)C(CO)O2)c1 (configuration not stated) show?
A. > 100 µM

Q. Bench note: what TGI did CC(C)(C)C(=O)C(CC(=O)c1ccccc1)C(=O)C(C)(C)C show?
A. > 100 µM

Q. Bench note: what TGI did Cc1ccc(-c2cc(N)n(-c3nc4c([nH]3)c(=O)n(C)c(=O)n4C)n2)cc1 show?
A. 21.8 µM

Q. Bench note: what TGI did Cc1ccc2c(c1)nc(N)n[n+]2[O-] show?
A. > 100 µM

====

test system: MALME-3M melanoma; assay: NCI tumour cell line growth inhibition, 48 h
ATTRIBUTE_MEASURED: GI50

Reference set, count: 3
C#Cc1cnc(=O)n(C2CC(O)C(CO)O2)c1 (centres undefined); > 100 µM
C=C1CCC2C(/C=C(\C)CCC1O)OC(=O)C2C (centres undefined); > 100 µM
CC(=O)[CH-]C(=O)c1ccccc1.CC(=O)[CH-]C(=O)c1ccccc1.CCCCCCCCCCCCCCCCCC(=O)[O-].CCCCCCCCCCCCCCCCCC(=O)[O-].[Ti+4]; 36.7 µM

Field: next compound
Q. Bench note: what GI50 did CN(C)CC(=O)N1CCC(c2ccc(NC(=O)c3ncc(C#N)[nH]3)c(C3=CCCCC3)c2)CC1 show?
A. 4.3 µM

====

tested on: SNB-75 CNS; test: NCI tumour cell line growth inhibition, 48 h
Overview of reported TGI across a group of compounds:

Reference set, count: 2
Cc1cc(-c2nc3ccccc3s2)ccc1NS(=O)(=O)O; > 100 µM
O=C1CC(c2ccco2)C2(C(=O)NC(=O)NC2=O)C(c2ccco2)C1 (stereo not drawn); > 75 µM

Field: next compound
Q. Bench note: what TGI did COc1ccc(/C=C/C=C(/C#N)C(N)=S)cc1 show?
A. 99.6 µM

====

test system: OVCAR-4 ovarian; experiment: NCI tumour cell line growth inhibition, 48 h; in the data active = GI50 below about 0.43 µM; inactive = the rest
Just give me one of these, please: active, inactive

O=C(CCN1CCN(c2cnc3ccccc3n2)CC1)c1csc2ccccc12; inactive
CCCCCCCCCCCCCC(=S)NCCCC[C@H](NC(=O)OCc1ccccc1)C(=O)Nc1ccccc1; inactive
Fc1cccc(COc2ccc(Nc3ncncc3C#Cc3ccccc3)cc2Cl)c1; inactive
NC(N)=N/N=C(/c1ccccc1)c1ccc(F)cc1; inactive
C=CC(=O)N[C@H]1C=C(C)c2c(-c3cnc4ccccc4c3)c3c(N)ncnc3n2C1; inactive
CN=C(N)N/N=C(\c1ccccc1)c1ccc(Br)cc1; inactive
Cc1[nH]c(/C=C2\C(=O)Nc3ccc(S(=O)(=O)Cc4c(Cl)cccc4Cl)cc32)c(C)c1C(=O)N1CCC[C@@H]1CN1CCCC1; inactive
CC(C)(C)c1cc(O)c(O)c(C(C)(C)C)c1; inactive

From here, focus on the item given below.
Q. Query: recorded result category for CCC(C)C1NC(=O)c2nc(oc2-c2ccccc2)-c2csc(n2)-c2csc(n2)-c2nc(oc2C)-c2coc(n2)CNC(=O)C(C(C)CC)NC1=O (centres undefined) in this test
A. active
